B1: HDV Ribozyme (parent)
chain: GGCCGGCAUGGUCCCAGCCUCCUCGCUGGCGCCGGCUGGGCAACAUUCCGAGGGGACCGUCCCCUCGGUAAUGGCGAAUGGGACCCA

- Variants of: B1
- assayProcedure: self-cleavage, relative activity (ratio to wild type); higher = more cleavage; co-transcriptional
Give 1 when the value for self-cleavage is at least 0.6. Give 0 when it is less.

{"mutantDesignation": "A45C C75A", "assignedCategory": 0}
{"mutantDesignation": "G10C G38A", "assignedCategory": 0}
{"mutantDesignation": "C4A G38A", "assignedCategory": 0}
{"mutantDesignation": "G53A A83C", "assignedCategory": 0}
{"mutantDesignation": "G54A U79A", "assignedCategory": 0}
{"mutantDesignation": "C61U C62U", "assignedCategory": 1}
{"mutantDesignation": "C7A C13A", "assignedCategory": 0}
{"mutantDesignation": "U9G C33A", "assignedCategory": 0}
{"mutantDesignation": "G17C C85A", "assignedCategory": 0}
{"mutantDesignation": "U12C U37A", "assignedCategory": 0}
{"mutantDesignation": "C36G A83U", "assignedCategory": 0}
{"mutantDesignation": "C3G C4A", "assignedCategory": 0}
{"mutantDesignation": "A16G A56C", "assignedCategory": 1}
{"mutantDesignation": "U47C C75U", "assignedCategory": 0}
{"mutantDesignation": "G38A G39C", "assignedCategory": 0}
{"mutantDesignation": "G2A A87U", "assignedCategory": 0}
{"mutantDesignation": "G25A C85U", "assignedCategory": 0}
{"mutantDesignation": "C13A C62A", "assignedCategory": 0}
{"mutantDesignation": "A78G A83U", "assignedCategory": 0}
{"mutantDesignation": "G29U C64U", "assignedCategory": 0}
{"mutantDesignation": "U60A C75G", "assignedCategory": 0}
{"mutantDesignation": "G31C A45C", "assignedCategory": 0}
{"mutantDesignation": "C58A U65C", "assignedCategory": 1}
{"mutantDesignation": "G38C U69A", "assignedCategory": 0}
{"mutantDesignation": "C21G U47C", "assignedCategory": 0}
{"mutantDesignation": "G68C U69C", "assignedCategory": 1}
{"mutantDesignation": "U23G G67A", "assignedCategory": 1}
{"mutantDesignation": "G54A A77U", "assignedCategory": 1}
{"mutantDesignation": "C44A C66G", "assignedCategory": 1}
{"mutantDesignation": "G31A G40C", "assignedCategory": 0}
{"mutantDesignation": "G10A G80U", "assignedCategory": 0}
{"mutantDesignation": "G39A U65A", "assignedCategory": 0}
{"mutantDesignation": "A77U C84G", "assignedCategory": 0}
{"mutantDesignation": "U9A C57A", "assignedCategory": 1}
{"mutantDesignation": "G54C G67A", "assignedCategory": 1}
{"mutantDesignation": "C32G C41U", "assignedCategory": 0}
{"mutantDesignation": "A16C U60G", "assignedCategory": 1}
{"mutantDesignation": "G59C A78C", "assignedCategory": 0}
{"mutantDesignation": "C30A G81A", "assignedCategory": 0}
{"mutantDesignation": "G6U U46C", "assignedCategory": 0}
{"mutantDesignation": "G53A G67U", "assignedCategory": 1}
{"mutantDesignation": "G11C U46A", "assignedCategory": 0}
{"mutantDesignation": "G17A U60C", "assignedCategory": 0}
{"mutantDesignation": "G50U G54A", "assignedCategory": 1}
{"mutantDesignation": "U46A U72G", "assignedCategory": 1}
{"mutantDesignation": "C30U G67C", "assignedCategory": 1}
{"mutantDesignation": "C26A C44U", "assignedCategory": 1}
{"mutantDesignation": "U9G A87U", "assignedCategory": 1}
{"mutantDesignation": "A8C G29C", "assignedCategory": 0}
{"mutantDesignation": "U37A A56G", "assignedCategory": 0}
{"mutantDesignation": "U23G G76U", "assignedCategory": 1}
{"mutantDesignation": "G31C C32A", "assignedCategory": 0}
{"mutantDesignation": "C32U G81A", "assignedCategory": 0}
{"mutantDesignation": "G50C G52C", "assignedCategory": 0}
{"mutantDesignation": "G10C C33U", "assignedCategory": 1}
{"mutantDesignation": "G10C C41G", "assignedCategory": 0}
{"mutantDesignation": "G6A G40C", "assignedCategory": 0}
{"mutantDesignation": "C4G C48G", "assignedCategory": 0}
{"mutantDesignation": "C3A C63U", "assignedCategory": 0}
{"mutantDesignation": "C24G G50U", "assignedCategory": 0}
{"mutantDesignation": "G2A C3U", "assignedCategory": 0}
{"mutantDesignation": "C44A G54C", "assignedCategory": 1}
{"mutantDesignation": "C18G G35A", "assignedCategory": 0}
{"mutantDesignation": "G25C C49G", "assignedCategory": 0}
{"mutantDesignation": "G35U G80C", "assignedCategory": 0}
{"mutantDesignation": "U60G C84U", "assignedCategory": 1}
{"mutantDesignation": "C14U A16U", "assignedCategory": 1}
{"mutantDesignation": "A45C G53A", "assignedCategory": 0}
{"mutantDesignation": "A45U A56G", "assignedCategory": 1}
